- system under test: recombinant murine iNOS (Mus musculus)
- Construct: made in house; host or cells: E. coli
- assay remarks: NOS inhibition, hemoglobin capture assay, iNOS
- Format: biochemical
- assay conditions: Table 1; at least duplicate, SD ±8-12%; 10 μM L-arginine
readout name: Ki (µM)

{"smiles repr": "N=C(NCCC[C@H](N)CNCCCCN)N[N+](=O)[O-]", "unit string": "µM", "measured result": 123}

###

- system under test: recombinant rat nNOS (Rattus norvegicus)
- assay remarks: NOS inhibition, hemoglobin capture assay, nNOS
- assay conditions: conformationally restricted dipeptide analogs; read-out: IC50 against nNOS
readout name: IC50 (µM)

{"molecule": "N=C(NCCC[C@H](NC(=O)[C@@H]1C[C@@H](N)CN1)C(N)=O)N[N+](=O)[O-] [Compound 87, L-trans-Pro^4NH2-L-Arg^NO2-NH2]", "operator symbol": "<", "measured result": 50}
{"molecule": "NC(=O)[C@@H]1C[C@@H](NC(=O)[C@@H](N)CCC/N=C(\\N)N[N+](=O)[O-])CN1 [Compound 71, 4N-(L-Arg^NO2)-L-trans-Pro^4NH2-NH2]", "operator symbol": "=", "measured result": 0.5}

###

- system under test: recombinant rat nNOS (Rattus norvegicus)
- Construct: made in house; host or cells: E. coli
- assay remarks: NOS inhibition, hemoglobin capture assay, nNOS
- Type: biochemical
- assay conditions: Table 2; ratio of Ki (iNOS) to Ki (nNOS)

{"smiles repr": "N=C(NCCC[C@H](N)CNCCc1ccc(N)cc1)N[N+](=O)[O-]", "Selectivity iNOS/nNOS": 458}
{"smiles repr": "N=C(NCCC[C@H](N)CNCCc1cccc(N)c1)N[N+](=O)[O-]", "Selectivity iNOS/nNOS": 122}
{"smiles repr": "N=C(NCCC[C@H](N)CNc1ccc(N)cc1)N[N+](=O)[O-]", "Selectivity iNOS/nNOS": 149}
{"smiles repr": "N=C(NCCC[C@H](N)CNc1cccc(N)c1)N[N+](=O)[O-]", "Selectivity iNOS/nNOS": 127}
{"smiles repr": "N=C(NCCC[C@H](N)CNc1ccc(CN)cc1)N[N+](=O)[O-]", "Selectivity iNOS/nNOS": 245}

The measurements presented in this section are drawn from patent US6803486B2.
